meta.source: ChEMBL document CHEMBL4014327

Test: Solubility of compound in phosphate buffer at pH 6.7
Type: physicochemical
reported.endpoint: solubility
A complete answer gives the number followed by the unit.

Request: // solubility lookup, key: CC[C@@H]1[C@H](F)C(=O)N[C@@H]1COc1nccc2cc(C(N)=O)c(OC)cc12 [ZIMLOVISERTIB]
Result: 57 µg/mL

---

Experiment: Apparent intrinsic clearance in human liver microsomes
Assay type: ADME, microsome
Details: read-out: CLH(app)
Reported values of microsomal CLint for individual entries

Request: For the molecule shown here, COc1cc2c(OC[C@H]3NC(=O)C[C@H]3C)nccc2cc1C(N)=O , give the reported microsomal CLint.
Result: < 9 µL/min/mg
